- PROCEDURE DETAILS: Drug level in iv dosed CD-1 mouse eye after 24 hrs by LCMS analysis
- Type: ADME, organism-based
- CONDITION INFO: read-out: Drug uptake
METRIC NAME: concentration at 24 h (ng/g)
Give bare numbers, in ng/g.

Input line: May I ask what concentration at 24 h has been recorded for NCC1CCN(c2nc(-c3ccncc3)nc3sc4c(c23)CCCC4)CC1 ?
Output line: 375

* * *

- TARGET ENTITY: Protein kinase C zeta type (Homo sapiens, UniProt Q05513)
- Sequence (Q05513 whole entry): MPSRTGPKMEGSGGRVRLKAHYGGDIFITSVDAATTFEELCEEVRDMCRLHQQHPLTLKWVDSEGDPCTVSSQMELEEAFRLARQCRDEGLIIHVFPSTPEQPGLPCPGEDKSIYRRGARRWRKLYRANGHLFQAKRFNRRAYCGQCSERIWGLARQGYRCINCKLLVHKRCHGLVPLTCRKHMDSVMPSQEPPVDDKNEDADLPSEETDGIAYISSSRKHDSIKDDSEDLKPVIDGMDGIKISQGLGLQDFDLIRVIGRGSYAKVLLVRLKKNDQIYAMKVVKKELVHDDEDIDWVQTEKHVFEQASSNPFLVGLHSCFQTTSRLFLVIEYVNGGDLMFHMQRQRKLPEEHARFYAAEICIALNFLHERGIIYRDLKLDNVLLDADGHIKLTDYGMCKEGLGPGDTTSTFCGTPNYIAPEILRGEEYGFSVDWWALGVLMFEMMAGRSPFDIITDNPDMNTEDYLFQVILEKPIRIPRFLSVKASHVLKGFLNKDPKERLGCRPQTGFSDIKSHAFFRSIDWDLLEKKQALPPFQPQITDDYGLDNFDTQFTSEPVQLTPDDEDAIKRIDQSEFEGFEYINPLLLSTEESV
- PROCEDURE DETAILS: Inhibition of recombinant full-length human aPKCzeta expressed in Sf21 insect cells using 5FAM-ERMRPRKRQGSVRRRV-NH2 as substrate in presence of ATP after 60 mins by IMAP fluorescence polarization analysis
METRIC NAME: IC50 (µM)
Numbers only, in µM.

Input line: May I ask what IC50 has been recorded for CN1CCN(c2nc(-c3ccncc3)nc3sc4c(c23)CCCC4)CC1 ?
Output line: 3.7

* * *

- TARGET ENTITY: Protein kinase C iota type (Homo sapiens, UniProt P41743)
- Sequence (P41743 whole entry): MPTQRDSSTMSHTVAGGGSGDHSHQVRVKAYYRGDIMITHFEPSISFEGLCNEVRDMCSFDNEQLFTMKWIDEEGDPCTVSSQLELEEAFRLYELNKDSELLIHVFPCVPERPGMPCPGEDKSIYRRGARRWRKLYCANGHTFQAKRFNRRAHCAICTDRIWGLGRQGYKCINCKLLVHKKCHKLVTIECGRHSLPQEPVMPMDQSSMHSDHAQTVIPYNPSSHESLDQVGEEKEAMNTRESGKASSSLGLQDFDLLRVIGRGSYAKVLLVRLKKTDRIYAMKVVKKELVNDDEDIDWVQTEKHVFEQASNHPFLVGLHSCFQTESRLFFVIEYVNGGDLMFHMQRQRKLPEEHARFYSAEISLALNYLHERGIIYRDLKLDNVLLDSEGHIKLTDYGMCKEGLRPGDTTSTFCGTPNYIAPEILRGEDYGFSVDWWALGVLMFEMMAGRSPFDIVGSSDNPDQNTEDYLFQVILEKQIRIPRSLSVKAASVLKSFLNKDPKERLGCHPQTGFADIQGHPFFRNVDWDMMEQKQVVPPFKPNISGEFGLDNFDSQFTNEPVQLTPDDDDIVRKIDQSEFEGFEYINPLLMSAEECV
- PROCEDURE DETAILS: Inhibition of recombinant full-length human aPKCiota in presence of ATP at Km concentration by radiometric assay
METRIC NAME: pIC50
Give bare numbers, as −log10 of the molar value.

Input line: Query pIC50 on Protein kinase C iota type (Homo sapiens, UniProt P41743) for NCC1CCN(c2nc(-c3ccncc3)nc3sc4c(c23)CCCC4)CC1
Output line: 5.39

* * *

- PROCEDURE DETAILS: Inhibition of TNFalpha-induced NFkappaB activation in HEK293 cells preincubated for 2 hrs followed by TNFalpha stimulation by luciferase assay
- Type: cell-based
- CONDITION INFO: Homo sapiens
METRIC NAME: EC50
Mention the unit after the number when you answer.

Input line: May I ask what EC50 has been recorded for NCC1CCN(c2nc(-c3ccncc3)nc3sc4c(c23)CCCC4)CC1 ?
Output line: 6.65 µM

* * *

- PROCEDURE DETAILS: Inhibition of PKA (unknown origin) by radiometric kinase assay
- Set-up: species or system Homo sapiens
METRIC NAME: IC50 (nM)
Answers are plain numbers, in nM.

Input line: May I ask what IC50 has been recorded for NCC1CCN(c2nc(-c3ccncc3)nc3sc4c(c23)CCCC4)CC1 ?
Output line: 500

* * *

- TARGET ENTITY: Protein kinase C zeta type (Homo sapiens, UniProt Q05513)
- PROCEDURE DETAILS: Inhibition of recombinant full-length human aPKCzeta in presence of ATP at Km concentration by radiometric assay
METRIC NAME: IC50 (nM)
Give bare numbers, in nM.

Input line: May I ask what IC50 has been recorded for NCC1CCN(c2nc(-c3ccncc3)nc3sc4c(c23)CCCC4)CC1 ?
Output line: 1640

* * *

For each record, write down the corresponding EC50.
- PROCEDURE DETAILS: Inhibition of VEGF-induced permeability in BREC cells incubated for 2 hrs
- Assay type: functional, cell-based, Bos taurus
- CONDITION INFO: read-out: EC50
Give bare numbers, in nM.

Worked examples, 2 compounds total:
{"columns": ["SMILES STR", "EC50 (nM)"],
 "data": [
  ["NC1CCN(c2nc(-c3ccncc3)nc3sc4c(c23)CCCC4)CC1", 300],
  ["CN(C)C1CCN(c2nc(-c3ccncc3)nc3sc4c(c23)CCCC4)CC1", 300]
]}

Input line: May I ask what EC50 has been recorded for NCC1CCN(c2nc(-c3ccncc3)nc3sc4c(c23)CCCC4)CC1 ?
Output line: 71

src = ChEMBL document CHEMBL4622847
